one-hybrid fitness for binding NBS DNA listing for selected variants.
B1: Caulobacter ParB omega fusion; a variant is named by its letters at X, in order, B8GW30 (parent)
chain: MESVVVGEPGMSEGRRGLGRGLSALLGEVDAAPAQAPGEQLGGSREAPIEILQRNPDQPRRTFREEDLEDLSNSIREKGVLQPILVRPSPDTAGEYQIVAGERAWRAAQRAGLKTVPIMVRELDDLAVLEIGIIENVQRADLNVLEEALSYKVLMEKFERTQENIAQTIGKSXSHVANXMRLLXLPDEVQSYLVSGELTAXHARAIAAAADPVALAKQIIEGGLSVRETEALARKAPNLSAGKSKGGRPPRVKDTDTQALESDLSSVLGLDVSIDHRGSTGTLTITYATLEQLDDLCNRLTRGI

# Variants of: B1
# test-protocol: one-hybrid fitness for binding NBS DNA (the Noc-binding site; scaled: cognate 1, non-cognate 0); higher = stronger binding
# experimental-conditions: with NBS DNA site
In all, about 81,000 sequences were measured (“one-hybrid fitness for binding NBS DNA”: median about -0.1, highest 2% from about 0.36 on). The list comes from a sample in which the highest values are over-represented; it also holds close analogues and randomly drawn sequences.

# annotated cases, reported one-hybrid fitness for binding NBS DNA shown
>  <mutant-id>
WQTP

>  <one-hybrid fitness for binding NBS DNA>
≤ 0.2

$$$$
>  <mutant-id>
RLIW

>  <one-hybrid fitness for binding NBS DNA>
≤ 0.2

$$$$
>  <mutant-id>
TYNS

>  <one-hybrid fitness for binding NBS DNA>
≤ 0.2

$$$$
>  <mutant-id>
QRDI

>  <one-hybrid fitness for binding NBS DNA>
≤ 0.2

$$$$
>  <mutant-id>
FGDS

>  <one-hybrid fitness for binding NBS DNA>
≤ 0.2

$$$$
>  <mutant-id>
QYKR

>  <one-hybrid fitness for binding NBS DNA>
0.99

$$$$

Asked: What does the record list as one-hybrid fitness for binding NBS DNA for HNTA ?
Given back: ≤ 0.2

Asked: Entry under review: GRNT . Reported one-hybrid fitness for binding NBS DNA?
Given back: ≤ 0.2

Asked: State the recorded one-hybrid fitness for binding NBS DNA for this entry: EFMG
Given back: ≤ 0.2

Asked: What does the data say about its one-hybrid fitness for binding NBS DNA? Entry: RPVT
Given back: ≤ 0.2

Asked: Name the recorded one-hybrid fitness for binding NBS DNA for RQTM .
Given back: ≤ 0.2

Asked: For KPII , what is its reported one-hybrid fitness for binding NBS DNA?
Given back: ≤ 0.2

Asked: Fill in: one-hybrid fitness for binding NBS DNA of RKVP is ___
Given back: ≤ 0.2

Asked: Fill in: one-hybrid fitness for binding NBS DNA of REYM is ___
Given back: ≤ 0.2
